- Tested on: Leishmania donovani
- Protocol summary: Antileishmanial activity against Leishmania donovani MHOM/IN/80/DD8 amastigote forms harboring luciferase gene infected in mouse J774 cells after 72 hrs by Steady-Glo reagent based luminescence assay
- Format: functional, cell-based
- Settings: MHOM/IN/80/DD8, J774, 72 h
Property label: IC50 (µM)
I only need the number, in µM, no unit after it.

Query: Look at this molecule and give its reported IC50. COc1ccc(C2C3=C(CCC3=O)Nc3c2c(-c2c[nH]c4ccccc24)nn3-c2ccc(Cl)c(Cl)c2)cc1OC (stereo not drawn)
Reply: 4.05

Query: What does the record list as IC50 for `CCCCCCCCCCCCCCCCOP(=O)([O-])OCC[N+](C)(C)C` ?
Reply: 9.46

Query: Which measured IC50 value corresponds to COc1ccc(OC)c(C2C3=C(CC(C)(C)CC3=O)Nc3c2c(-c2c[nH]c4ccccc24)nn3-c2ccc(Cl)c(Cl)c2)c1 (stereo not drawn) ?
Reply: 7.36
